In this section, each of the binders is paired with its reported Relative maximal binding (cyno/human).
- EXPERIMENTAL SYSTEM: T1, recombinant cynomolgus CD33 protein (NovoProtein) (cynomolgus)
- T1 construct: Bought protein; also called cyno CD33
- T1 sequence (chain, as listed by the source limits assumed): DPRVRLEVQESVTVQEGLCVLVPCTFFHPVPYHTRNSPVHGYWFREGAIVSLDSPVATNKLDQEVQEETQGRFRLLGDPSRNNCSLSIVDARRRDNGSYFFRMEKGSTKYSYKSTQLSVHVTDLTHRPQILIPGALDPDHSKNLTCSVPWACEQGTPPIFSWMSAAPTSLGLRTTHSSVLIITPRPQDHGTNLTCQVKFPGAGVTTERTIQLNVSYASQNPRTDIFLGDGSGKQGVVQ
- TEST DETAILS: ELISA, plate coated with recombinant CD33
// no unit, no text: just the number

Please review the following examples before continuing.
anti-CD33 antibody 6C7H52 (antibody, V domains shown, VH/VL only) VH: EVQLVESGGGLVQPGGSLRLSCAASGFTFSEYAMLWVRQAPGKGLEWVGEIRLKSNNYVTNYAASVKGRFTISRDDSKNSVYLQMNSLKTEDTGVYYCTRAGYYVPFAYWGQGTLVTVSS VL: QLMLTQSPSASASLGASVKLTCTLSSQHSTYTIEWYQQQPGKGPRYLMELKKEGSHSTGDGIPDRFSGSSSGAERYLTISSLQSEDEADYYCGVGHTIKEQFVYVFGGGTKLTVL : 0.47
anti-CD33 antibody 6C7H51 (antibody, V domains shown, VH/VL only) VH: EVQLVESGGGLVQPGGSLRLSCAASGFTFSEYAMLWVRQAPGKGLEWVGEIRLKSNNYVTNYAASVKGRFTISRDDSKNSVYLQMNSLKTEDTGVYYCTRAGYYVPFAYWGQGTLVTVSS VL: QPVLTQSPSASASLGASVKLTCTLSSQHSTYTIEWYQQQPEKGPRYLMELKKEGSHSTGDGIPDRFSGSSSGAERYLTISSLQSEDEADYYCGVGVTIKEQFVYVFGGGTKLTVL : 0.08

Now consider a different binder.
Query: Item under review: anti-CD33 antibody 6C7H42 (antibody, V domains shown, VH/VL only) VH: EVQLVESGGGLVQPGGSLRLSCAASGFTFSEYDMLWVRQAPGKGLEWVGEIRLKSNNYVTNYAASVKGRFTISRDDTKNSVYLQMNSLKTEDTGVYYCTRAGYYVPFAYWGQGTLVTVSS VL: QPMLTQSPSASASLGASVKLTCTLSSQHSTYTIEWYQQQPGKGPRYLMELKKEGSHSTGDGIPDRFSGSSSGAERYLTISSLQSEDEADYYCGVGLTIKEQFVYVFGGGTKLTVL . Reported Relative maximal binding (cyno/human)?
Response: 0.08
